# credit: patent US7928099B2

Molecular target: human recombinant 5-HT2c receptor (Homo sapiens)
Test: 3H-meselurgine radioligand binding SPA, membranes from Swiss 3T3 cells (Method 2)
Conditions: 3H-meselurgine displacement, Cheng-Prusoff; Swiss 3T3 membranes; read-out: Binding Affinity Ki
Where a name gives a salt, the structure may show the parent alone.
measurement kind: Ki (µM)
Answers are plain numbers, in µM.

Consider the following items and state reported Ki for each.
1. OC1CCN(c2nc(Cc3ccccc3)nc3c2CCNCC3)CC1 [Example 38, hydrochloride]
2. CN(C)c1nc(N(C)CC2CC2)nc2c1CCNCC2 [Example 104]

-- reply
0.514
0.0903

* * *

Biological target: human recombinant 5-HT2c receptor (Homo sapiens)
Sequence (P28335 33-458): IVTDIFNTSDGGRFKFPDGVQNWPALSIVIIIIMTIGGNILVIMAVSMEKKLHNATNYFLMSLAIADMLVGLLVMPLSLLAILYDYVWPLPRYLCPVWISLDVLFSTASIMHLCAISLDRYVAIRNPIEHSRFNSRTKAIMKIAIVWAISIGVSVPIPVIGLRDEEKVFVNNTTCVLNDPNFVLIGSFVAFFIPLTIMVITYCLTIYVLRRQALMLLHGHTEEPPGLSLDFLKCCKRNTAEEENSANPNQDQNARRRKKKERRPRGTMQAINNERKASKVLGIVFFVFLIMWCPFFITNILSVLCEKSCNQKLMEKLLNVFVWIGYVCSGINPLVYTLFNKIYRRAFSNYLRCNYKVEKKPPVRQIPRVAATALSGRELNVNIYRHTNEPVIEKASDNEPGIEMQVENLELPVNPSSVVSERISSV
Assay: FLIPR fluorescent Ca2+ mobilisation agonist assay in CHO K1 cells (Method 1)
Conditions: agonist affinity, FLIPR
Counter-ions that a name gives are not always drawn.
Class key for EC50 values: A = under 100 nM, B = from 100 nM up to 300 nM, C = 300 nM and over

Record excerpt, results attached:
| compound | label |
| --- | --- |
| OC1CCN(c2nc(Cc3ccccc3)nc3c2CCNCC3)CC1 [Example 38, hydrochloride] | C |
| CN(C)c1nc(N(C)Cc2ccccc2)nc2c1CCNCC2 [Example 113] | B |
| CC(C)[C@@H](CO)Nc1nc(Cc2ccccc2)nc2c1CCNCC2 [Example 24, hydrochloride] | B |
| OCC1CCN(c2nc(Cc3ccccc3)nc3c2CCNCC3)C1 (centres unmarked) [Example 42, hydrochloride] | A |
| c1ccc(CNc2nc(N3CCC3)nc3c2CCNCC3)cc1 | B |

-- ask Which EC50 category applies to c1ccc2c(c1)CCN(c1nc3c(c(N4CCSCC4)n1)CCNCC3)C2 here?
-- reply C

-- ask Cool, now CC(C)(c1ccccc1)c1ncc2c(n1)CCNCC2
-- reply C
